Compiled IC50 measurements on Sphingosine kinase 1 (Homo sapiens, UniProt Q9NYA1) taken from the literature.

Sphingosine kinase 1 (Homo sapiens, UniProt Q9NYA1) assay, molecule CCN(CC)CCN1CCC(c2nc(-c3ccc4c(c3)C(C)(C)CCC4(C)C)cs2)CC1 , recorded IC50 = 1 to 10 µM

Sphingosine kinase 1 (Homo sapiens, UniProt Q9NYA1) IC50 of COCCOc1ccc(-c2ccc3c(c2)C(C)(C)CCC3(C)C)nc1N1CCN(CCCCCO)CC1 is > 1 µM

Sample CC1(C)CCC(C)(C)c2cc(-c3csc(C4CCN(Cc5ccccn5)CC4)n3)ccc21 , system: Sphingosine kinase 1 (Homo sapiens, UniProt Q9NYA1). Its IC50 is 1 to 10 µM

Log: Sphingosine kinase 1 (Homo sapiens, UniProt Q9NYA1), molecule CC1(C)CCC(C)(C)c2cc(-c3ncnc(N4CCNCC4)n3)ccc21 , IC50 = < 0.1 µM

IC50 for Sphingosine kinase 1 (Homo sapiens, UniProt Q9NYA1) with input CC1(C)CCC(C)(C)c2cc(-c3csc(C4CCN(Cc5ccc(CO)o5)CC4)n3)ccc21 equals 1 to 10 µM

Field IC50 (system: Sphingosine kinase 1 (Homo sapiens, UniProt Q9NYA1)) for entry C[C@H]1CN(c2cccc(-c3ccc4c(c3)C(C)(C)CCC4(C)C)c2)CCN1 = 0.1 to 1 µM

Log: Sphingosine kinase 1 (Homo sapiens, UniProt Q9NYA1), molecule CN1CCCC1CCN1CCC(c2nc(-c3ccc4c(c3)CCCC4)cs2)CC1 (stereo not drawn) , IC50 = > 10 µM

Recorded IC50 for CC1(C)CCC(C)(C)c2cc(-c3cccc(N4CCN(CCCCCO)CC4)c3)ccc21 on Sphingosine kinase 1 (Homo sapiens, UniProt Q9NYA1) was < 0.1 µM

Measured on Sphingosine kinase 1 (Homo sapiens, UniProt Q9NYA1), CC1(C)CCC(C)(C)c2cc(-c3csc(N4CCCC(CCCO)C4)n3)ccc21 (stereo not drawn) has a documented IC50 of > 1 µM

Measured IC50 (Sphingosine kinase 1 (Homo sapiens, UniProt Q9NYA1)), entry CC1(C)CC(C)(C)c2cc(-c3csc(C4CCN(CCCCCO)CC4)n3)ccc21 : 0.01 to 1 µM

Measured on Sphingosine kinase 1 (Homo sapiens, UniProt Q9NYA1), CC1(C)CCC(C)(C)c2cc(-c3ncnc(N4CCN(CCCCCO)CC4)n3)ccc21 has a documented IC50 of < 0.1 µM

Test item CC1(C)CC(C)(C)c2cc(-c3csc(C4CCNCC4)n3)ccc21 ; Sphingosine kinase 1 (Homo sapiens, UniProt Q9NYA1); reported IC50 was 0.01 to 1 µM

Measured IC50 for this entry COCCN1CCC(c2nc(-c3ccc4c(c3)C(C)(C)CCC4(C)C)cs2)CC1 on Sphingosine kinase 1 (Homo sapiens, UniProt Q9NYA1): 0.01 to 1 µM

Here CC1(C)CCC(C)(C)c2cc(-c3csc(C4CCN(C(=O)[C@@H](N)CC(N)=O)CC4)n3)ccc21 was tested on Sphingosine kinase 1 (Homo sapiens, UniProt Q9NYA1), and its IC50 came to 1 to 10 µM

Given the molecule CC1(C)CCC(C)(C)c2cc(-c3csc(N4CCC(NCC(O)CO)CC4)n3)ccc21 (stereo not drawn) and test system Sphingosine kinase 1 (Homo sapiens, UniProt Q9NYA1), the measured IC50 is < 0.1 µM

Item CC1(C)CCC(C)(C)c2cc(-c3cccc(N4CCC(N5CCC(N)C5)CC4)n3)ccc21 (stereo not drawn) ; assay system Sphingosine kinase 1 (Homo sapiens, UniProt Q9NYA1); IC50 reported as < 0.1 µM

Noted IC50 for CC1(C)CCC(C)(C)c2cc(-c3nccc(N4CCNCC4)n3)ccc21 , tested on Sphingosine kinase 1 (Homo sapiens, UniProt Q9NYA1): 0.1 to 1 µM

Response field IC50 (Sphingosine kinase 1 (Homo sapiens, UniProt Q9NYA1)) for item CC1(C)CCC(C)(C)c2cc(-c3csc(C4CCN(Cc5c[nH]cn5)CC4)n3)ccc21 : 0.01 to 1 µM

Item CC1(C)CCc2cc(-c3csc(N4CCC(N)CC4)n3)ccc21 ; assay system Sphingosine kinase 1 (Homo sapiens, UniProt Q9NYA1); IC50 reported as 0.1 to 1 µM

The reported IC50 value, Sphingosine kinase 1 (Homo sapiens, UniProt Q9NYA1), for CC1(C)CCC(C)(C)c2cc(-c3csc(C4CCNC4)n3)ccc21 (stereo not drawn) reads 0.1 to 1 µM

Given the molecule c1cc2c(cc1-c1csc(C3CCNCC3)n1)CCCC2 and test system Sphingosine kinase 1 (Homo sapiens, UniProt Q9NYA1), the measured IC50 is 0.01 to 1 µM

Recorded IC50 for CC(CN(C)C)N1CCC(c2nc(-c3ccc4c(c3)C(C)(C)CCC4(C)C)cs2)CC1 (stereo not drawn) on Sphingosine kinase 1 (Homo sapiens, UniProt Q9NYA1) was 1 to 10 µM

Short answer on Sphingosine kinase 1 (Homo sapiens, UniProt Q9NYA1) for CC(=O)NC1CCN(C2CCN(c3nc(-c4ccc5c(c4)C(C)(C)CCC5(C)C)cs3)CC2)C1 (stereo not drawn) , IC50: < 0.1 µM

Form field IC50 for item CC1(C)CCC(C)(C)c2cc(-c3csc(C4CCN(C(=O)CCN5CCNCC5)CC4)n3)ccc21 on Sphingosine kinase 1 (Homo sapiens, UniProt Q9NYA1): > 10 µM

# IC50 measured on Sphingosine kinase 1 (Homo sapiens, UniProt Q9NYA1) for item CC1(C)CCCc2cc(-c3csc(N4CCC(N)CC4)n3)ccc21 = 0.1 to 1 µM

The molecule OCCN1CCC(c2nc(-c3ccc4c(c3)CCCC4)cs2)CC1 , when measured on Sphingosine kinase 1 (Homo sapiens, UniProt Q9NYA1), yielded IC50 of 1 to 10 µM

Per the reported Sphingosine kinase 1 (Homo sapiens, UniProt Q9NYA1) data, CC1(C)CCC(C)(C)c2cc(-c3csc(N4CC[C@H](NCCCO)C4)n3)ccc21 has IC50 of > 1 µM

CC1(C)CCC(C)(C)c2cc(-c3cccc(N4CCN(CCCCO)CC4)n3)ccc21 tested on Sphingosine kinase 1 (Homo sapiens, UniProt Q9NYA1) gave IC50: < 0.1 µM

Measured IC50 for this entry CC1(C)CCC(C)(C)c2cc(-c3csc(C4CCCNC4)n3)ccc21 (stereo not drawn) on Sphingosine kinase 1 (Homo sapiens, UniProt Q9NYA1): 0.1 to 1 µM

Field IC50 (Sphingosine kinase 1 (Homo sapiens, UniProt Q9NYA1)), entry CC1(C)CCC(C)(C)c2cc(-c3csc(C4CCN(C(=O)[C@H](N)CCCCO)CC4)n3)ccc21 : 0.01 to 1 µM

Given the molecule CCn1nccc1CN1CCC(c2nc(-c3ccc4c(c3)C(C)(C)CCC4(C)C)cs2)CC1 and test system Sphingosine kinase 1 (Homo sapiens, UniProt Q9NYA1), the measured IC50 is 1 to 10 µM

IC50 for Sphingosine kinase 1 (Homo sapiens, UniProt Q9NYA1) with input Cc1ccc(-c2ccc3c(c2)C(C)(C)CCC3(C)C)cc1N1CCNCC1 equals > 1 µM

The reported Sphingosine kinase 1 (Homo sapiens, UniProt Q9NYA1) IC50 of Cn1ccnc1CN1CCC(c2nc(-c3ccc4c(c3)C(C)(C)CCC4(C)C)cs2)CC1 is 0.01 to 1 µM

Tested on Sphingosine kinase 1 (Homo sapiens, UniProt Q9NYA1), the item CC1(C)CCC(C)(C)c2cc(-c3csc(C4CCN(C(=O)[C@@H](N)Cc5cnc[nH]5)CC4)n3)ccc21 showed IC50 equal to 1 to 10 µM

Record CCN1CCCC(N2CCC(c3nc(-c4ccc5c(c4)C(C)(C)CCC5(C)C)cs3)CC2)C1 (stereo not drawn) has Sphingosine kinase 1 (Homo sapiens, UniProt Q9NYA1) IC50 equal to 1 to 10 µM

Item CC1(C)CCC(C)(C)c2cc(-c3csc(N4CCN(CCO)CC4)n3)ccc21 was tested on Sphingosine kinase 1 (Homo sapiens, UniProt Q9NYA1); the reported IC50 is 0.1 to 1 µM
